System: Mycobacterium leprae
ASSAY_DETAILS: Anti-leprotic activity against Mycobacterium leprae infected in 538 CBA mouse assessed as number of Mycobacterium leprae in paw pads at 2 mg/kg administrated via gastric tube 5 times a week and measured 7 months post infection
Assay type: functional
QUANTITY: Activity

Past entries and their recorded results:
- COMPOUND: "COc1ncnc(SC(=S)N2CCCC2)c1[N+](=O)[O-]"
  ASSAY_RESULT: "0.07 ×10⁷ No_unit"
- COMPOUND: "COc1cc(Sc2cnc(N)nc2N)cc(OC)c1Br"
  ASSAY_RESULT: "0.66 ×10⁷ No_unit"
- COMPOUND: "CN(C)c1ncnc(SC(=S)N2CCCC2)c1[N+](=O)[O-]"
  ASSAY_RESULT: "4.43 ×10⁷ No_unit"
- COMPOUND: "Nc1ccc(S(=O)(=O)c2ccc(N)cc2)cc1 [DAPSONE]"
  ASSAY_RESULT: "0.025 ×10⁷ No_unit"
- COMPOUND: "N#Cc1cc([N+](=O)[O-])cnc1SC(=S)N1CCCCCC1"
  ASSAY_RESULT: "6.64 ×10⁷ No_unit"

Give reported Activity value for "COc1cc(Oc2cnc(N)nc2N)cc(OC)c1Br"
1.27 ×10⁷ No_unit

Give reported Activity value for "N#Cc1cc([N+](=O)[O-])cnc1SC(=S)N1CCCC1"
0.56 ×10⁷ No_unit

----------
Each item that follows carries a reported concentration at 168 h.
ASSAY_DETAILS: Plasma concentration in rifampin-susceptible Mycobacterium leprae infected in BALB/c mouse at 6 mg/kg administered with food daily for 1 week by high-pressure liquid chromatography analysis
Type: ADME, organism-based
MEASUREMENT_CONDITIONS: po
Express the result in µg/mL but write the number alone.

- COMPOUND: "OO [HYDROGEN PEROXIDE]"
  OUTPUT_UNIT: "µg/mL"
  concentration at 168 h: 0.042

Could you now look at the following compound, please?
Give reported concentration at 168 h value for CO[C@H]1/C=C/O[C@@]2(C)Oc3c(C)c(O)c4c(c3C2=O)C2=NC3(CCN(CC(C)C)CC3)NC2=C(NC(=O)/C(C)=C\C=C\[C@H](C)[C@H](O)[C@@H](C)[C@@H](O)[C@@H](C)[C@H](OC(C)=O)[C@@H]1C)C4=O [RIFABUTIN]
0.38

----------
ASSAY_DETAILS: Plasma concentration in rifampin-susceptible Mycobacterium leprae infected in BALB/c mouse at 6 mg/kg administered with food daily for 8 weeks by high-pressure liquid chromatography analysis
Format: ADME, organism-based
MEASUREMENT_CONDITIONS: po
QUANTITY: concentration at 1344 h (ng/mL)
Express the result in ng/mL but write the number alone.

Give reported concentration at 1344 h value for "CO[C@H]1/C=C/O[C@@]2(C)Oc3c(C)c(O)c4c(c3C2=O)C2=NC3(CCN(CC(C)C)CC3)NC2=C(NC(=O)/C(C)=C\C=C\[C@H](C)[C@H](O)[C@@H](C)[C@@H](O)[C@@H](C)[C@H](OC(C)=O)[C@@H]1C)C4=O"
52

----------
ASSAY_DETAILS: Inhibition of Mycobacterium smegmatis ATCC 607 dihydrofolic reductase
Set-up: species or system Mycolicibacterium smegmatis
QUANTITY: pKi
# pKi: negative log10 of molar concentration; output just the value

- COMPOUND: "CC(C)CCc1cnc2nc(N)nc(N)c2n1"
  pKi: 9.00

Give reported pKi value for CN(Cc1cnc2nc(N)nc(N)c2n1)c1ccc(C(=O)N[C@@H](CCC(=O)O)C(=O)O)cc1 [METHOTREXATE]
9.46

Give reported pKi value for "CC(C)Cc1cnc2nc(N)nc(N)c2n1"
9.05

Give reported pKi value for "COc1cc(CCc2cnc3nc(N)nc(N)c3n2)cc(OC)c1OC"
7.74

Give reported pKi value for "Nc1nc(N)c2nc(Cc3ccc(Cl)c(Cl)c3)cnc2n1"
8.70

Give reported pKi value for "CCCCc1cnc2nc(N)nc(N)c2n1"
9.00

Give reported pKi value for "CCc1nc(N)nc(N)c1-c1ccc(Cl)cc1"
7.12
